- Tested on: P. falciparum 3D7 (chloroquine-sensitive)
- Experiment Notes: in vitro growth inhibition assay, P. falciparum 3D7
- Assay type: cell-based
- Condition Description: Plasmodium falciparum, 3D7, read-out: IC50 ± SEM 3D7
Outcome Measure: pIC50
Note on pIC50: it is the negative log10 of concentration, concentration in mol/L.

Incoming: Query (compound): [C-]#[N+]C(C)(C)C[C@@H]1C[C@H](C)[C@H]2CC[C@H](C)[C@@]3([N+]#[C-])CCC(=C)[C@@H]1[C@H]23 [compound 1, (−)-8,15-diisocyano-11(20)-amphilectene] ; field requested: pIC50
Outgoing: 8.92

Source of measurements: paper PMC4815908
